# Tested on: A2780
# METHOD NOTES: Cytotoxicity against human A2780 cells at 1 uM after 72 hrs by MTT assay
# Format: functional
# MEASUREMENT SETUP: A2780, 72 h, read-out: GI
ASSAY ENDPOINT: inhibition of growth at 1 µM (%)
Answers are plain numbers, in %.

CO[C@H]1C(=O)[C@]2(C)[C@@H](OC)C[C@H]3OC[C@@]3(OC(C)=O)[C@H]2[C@H](OC(=O)c2ccccc2)[C@]23OC(=O)O[C@H]2[C@H](OC(=O)[C@H](O)[C@@H](NC(=O)c2ccccc2)c2ccccc2)C(C)=C1C3(C)C :: 96.7

# per-item lookup of inhibition of growth at 1 µM; items listed below
1. CO[C@H]1C[C@H]2OC[C@@]2(OC(C)=O)[C@H]2[C@H](OC(=O)c3ccccc3)[C@]3(O)C[C@H](OC(=O)[C@H](O)[C@@H](NC(=O)OC(C)(C)C)c4ccccc4)C(C)=C([C@@H](OC(=O)N(C)C)C(=O)[C@]12C)C3(C)C
2. CO[C@H]1C(=O)[C@]2(C)[C@@H](OC(=O)N(C)C)C[C@H]3OC[C@@]3(OC(C)=O)[C@H]2[C@H](OC(=O)c2ccccc2)[C@]2(O)C[C@H](OC(=O)[C@H](O)[C@@H](NC(=O)c3ccccc3)c3ccccc3)C(C)=C1C2(C)C
3. COC(=O)O[C@H]1C[C@H]2OC[C@@]2(OC(C)=O)[C@H]2[C@H](OC(=O)c3ccccc3)[C@]3(O)C[C@H](OC(=O)[C@H](O)[C@@H](NC(=O)c4ccccc4)c4ccccc4)C(C)=C([C@@H](OC)C(=O)[C@]12C)C3(C)C

94.8
95.6
96.9

# batch: return inhibition of growth at 1 µM for each of the 2 compounds below
1. CC(=O)O[C@H]1C(=O)[C@@]2(C)[C@H]([C@H](OC(=O)c3ccccc3)[C@]34OC(=O)O[C@H]3[C@H](OC(=O)[C@H](O)[C@H](CC(C)C)NC(=O)OC(C)(C)C)C(C)=C1C4(C)C)[C@]1(OC(C)=O)CO[C@@H]1C[C@@H]2O [ORTATAXEL]
2. CO[C@H]1C(=O)[C@]2(C)[C@@H](OC)C[C@H]3OC[C@@]3(OC(C)=O)[C@H]2[C@H](OC(=O)c2ccccc2)[C@]23OC(=O)O[C@H]2[C@H](OC(=O)[C@H](O)[C@@H](NC(=O)OC(C)(C)C)c2ccccc2)C(C)=C1C3(C)C

[96.4, 94.7]

Provide inhibition of growth at 1 µM for all items below, preserving their order.
1. CO[C@H]1C(=O)[C@@]2(C)[C@H]([C@H](OC(=O)c3ccccc3)[C@]34OC(=O)O[C@H]3[C@H](OC(=O)[C@H](O)[C@@H](NC(=O)OC(C)(C)C)c3ccccc3)C(C)=C1C4(C)C)[C@]1(OC(C)=O)CO[C@@H]1C[C@@H]2O
2. CO[C@H]1C(=O)[C@]2(C)[C@@H](OC(=O)N(C)C)C[C@H]3OC[C@@]3(OC(C)=O)[C@H]2[C@H](OC(=O)c2ccccc2)[C@]2(O)C[C@H](OC(=O)[C@H](O)[C@@H](NC(=O)OC(C)(C)C)c3ccccc3)C(C)=C1C2(C)C

1: 95; 2: 95.8

* * *

# System: HT-29
# METHOD NOTES: Cytotoxicity against human HT-29 cells at 1 uM after 72 hrs by MTT assay
# Assay type: functional
# MEASUREMENT SETUP: HT-29, 72 h, read-out: GI
For each of the molecules below, state its inhibition of growth at 1 µM.
Numbers only, in %.

CC(=O)O[C@H]1C(=O)[C@@]2(C)[C@H]([C@H](OC(=O)c3ccccc3)[C@]34OC(=O)O[C@H]3[C@H](OC(=O)[C@H](O)[C@H](CC(C)C)NC(=O)OC(C)(C)C)C(C)=C1C4(C)C)[C@]1(OC(C)=O)CO[C@@H]1C[C@@H]2O :: 87.7

Hey, can you go through the list below and give me inhibition of growth at 1 µM for every item?
1. CO[C@H]1C[C@H]2OC[C@@]2(OC(C)=O)[C@H]2[C@H](OC(=O)c3ccccc3)[C@]3(O)C[C@H](OC(=O)[C@H](O)[C@@H](NC(=O)c4ccccc4)c4ccccc4)C(C)=C([C@@H](OC(=O)N(C)C)C(=O)[C@]12C)C3(C)C
2. CO[C@H]1C(=O)[C@]2(C)[C@@H](OC)C[C@H]3OC[C@@]3(OC(C)=O)[C@H]2[C@H](OC(=O)c2ccccc2)[C@]2(O)C[C@H](OC(=O)[C@H](O)[C@@H](NC(=O)OC(C)(C)C)c3ccccc3)C(C)=C1C2(C)C

87.9
87.2

Notebook entry, HT-29 assay: inhibition of growth at 1 µM of COC(=O)O[C@H]1C(=O)[C@]2(C)[C@@H](OC)C[C@H]3OC[C@@]3(OC(C)=O)[C@H]2[C@H](OC(=O)c2ccccc2)[C@]2(O)C[C@H](OC(=O)[C@H](O)[C@@H](NC(=O)OC(C)(C)C)c3ccccc3)C(C)=C1C2(C)C = ?
87.3

* * *

Consider the following compounds; for each one, report its inhibition of growth at 1 µM.
# Test system: A-375
# METHOD NOTES: Cytotoxicity against human A375 cells at 1 uM after 72 hrs by MTT assay
# Format: functional
# MEASUREMENT SETUP: A-375, 72 h, read-out: GI
One number for each entry, in %.

COC(=O)O[C@H]1C(=O)[C@]2(C)[C@@H](OC)C[C@H]3OC[C@@]3(OC(C)=O)[C@H]2[C@H](OC(=O)c2ccccc2)[C@]2(O)C[C@H](OC(=O)[C@H](O)[C@@H](NC(=O)OC(C)(C)C)c3ccccc3)C(C)=C1C2(C)C :: 103
COC(=O)O[C@H]1C[C@H]2OC[C@@]2(OC(C)=O)[C@H]2[C@H](OC(=O)c3ccccc3)[C@]3(O)C[C@H](OC(=O)[C@H](O)[C@@H](NC(=O)OC(C)(C)C)c4ccccc4)C(C)=C([C@@H](OC)C(=O)[C@]12C)C3(C)C :: 97.4
CO[C@H]1C[C@H]2OC[C@@]2(OC(C)=O)[C@H]2[C@H](OC(=O)c3ccccc3)[C@]3(O)C[C@H](OC(=O)[C@H](O)[C@@H](NC(=O)OC(C)(C)C)c4ccccc4)C(C)=C([C@@H](OC(=O)N(C)C)C(=O)[C@]12C)C3(C)C :: 87.7
CO[C@H]1C(=O)[C@]2(C)[C@@H](OC)C[C@H]3OC[C@@]3(OC(C)=O)[C@H]2[C@H](OC(=O)c2ccccc2)[C@]23OC(=O)O[C@H]2[C@H](OC(=O)[C@H](O)[C@@H](NC(=O)OC(C)(C)C)c2ccccc2)C(C)=C1C3(C)C :: 89.8
CO[C@H]1C[C@H]2OC[C@@]2(OC(C)=O)[C@H]2[C@H](OC(=O)c3ccccc3)[C@]3(O)C[C@H](OC(=O)[C@H](O)[C@@H](NC(=O)c4ccccc4)c4ccccc4)C(C)=C([C@@H](OC(=O)N(C)C)C(=O)[C@]12C)C3(C)C :: 87.7
CO[C@H]1C[C@H]2OC[C@@]2(OC(C)=O)[C@H]2[C@H](OC(=O)c3ccccc3)[C@]3(O)C[C@H](OC(=O)[C@H](O)[C@H](CC(C)C)NC(=O)OC(C)(C)C)C(C)=C([C@@H](OC(=O)N(C)C)C(=O)[C@]12C)C3(C)C :: 89

Record inhibition of growth at 1 µM for all entries; do not skip any.
1. CO[C@H]1C(=O)[C@]2(C)[C@@H](OC)C[C@H]3OC[C@@]3(OC(C)=O)[C@H]2[C@H](OC(=O)c2ccccc2)[C@]2(O)C[C@H](OC(=O)[C@H](O)[C@@H](NC(=O)OC(C)(C)C)c3ccccc3)C(C)=C1C2(C)C [CABAZITAXEL]
2. CO[C@H]1C(=O)[C@]2(C)[C@@H](OC)C[C@H]3OC[C@@]3(OC(C)=O)[C@H]2[C@H](OC(=O)c2ccccc2)[C@]23OC(=O)O[C@H]2[C@H](OC(=O)[C@H](O)[C@@H](NC(=O)c2ccccc2)c2ccccc2)C(C)=C1C3(C)C

1: 97; 2: 90.8
